System tested: BirA (biotin protein ligase, Group II) (Bacillus subtilis 168)
Sequence: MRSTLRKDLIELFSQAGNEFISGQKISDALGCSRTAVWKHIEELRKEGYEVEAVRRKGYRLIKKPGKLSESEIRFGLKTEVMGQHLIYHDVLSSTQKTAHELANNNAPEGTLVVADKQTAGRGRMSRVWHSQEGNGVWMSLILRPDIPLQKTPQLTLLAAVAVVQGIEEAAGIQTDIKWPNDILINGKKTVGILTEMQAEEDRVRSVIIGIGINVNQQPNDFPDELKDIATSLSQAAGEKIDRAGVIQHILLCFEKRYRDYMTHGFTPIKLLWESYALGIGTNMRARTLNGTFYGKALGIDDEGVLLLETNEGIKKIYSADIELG
Assay method text: EMSA
Measurement setup: 50 mM Tris-HCl pH 8.0, 1 mM EDTA, 50 mM NaCl, 10% glycerol, 40 nM DNA, 15.6-500 nM BirA, 1 mM ATP, 1 mM MgCl2, 1 uM biotin; room temperature 30 min; 6% gel in …
Measurement name: binding

Consider the worked cases shown below.
>  <Input sequence>
CCTTTCACTGATAACTGAAGAACGTGTAGCGCTTCTCACCTAAATTGTTAACCAATTATATTCAAAGGTTAACAATTAGAATATATTATTCTCTCCTGTTTCTGTCAATAGAAGAAAGGATC (double strand) [B. subtilis bioO (bioWAFDBI operator)]

>  <System tested>
BirA (biotin protein ligase, Group II) (Bacillus subtilis 168)

>  <Measurement name>
binding

>  <Result>
binds

$$$$
>  <Input sequence>
CCAAAAAGTAATCAAATATGGTTATACAATAAATGCAGGTAATTATTATGTCAACTGATTTTTAATTTAAGTTTACATAATGAACGCAAAAAAACCGGCCGTATGGCAGACCGGTTTTTGATGGT (double strand) [yhfU operator]

>  <System tested>
BirA (biotin protein ligase, Group II) (Bacillus subtilis 168)

>  <Measurement name>
binding

>  <Result>
binds

$$$$
>  <Input sequence>
CCCTTAGGTTGACATACACAATCATAGAGTAATAAAGAACAAAAAGATTGTCAACATGATTTTAAATTAGGTTAACAAAAAGGAGGCCCATATGTATTTCGGAAAAACAAGACAGTCCGATCAAT (double strand) [yuiG operator]

>  <System tested>
BirA (biotin protein ligase, Group II) (Bacillus subtilis 168)

>  <Measurement name>
binding

>  <Result>
binds

$$$$
>  <Input sequence>
AACGATCGGGATTTCCATTTTCATCGATTCCAAAATGGCTACCTCCTGGCCCTTTTCGATTTGGTCGCCGGCTTTGACGTGGACTTTCCACAGGTTTCCTGCCATTTGTATGCTAACCGTCATGC (double strand) [non-operator DNA (yngHB/blap internal fragment)]

>  <System tested>
BirA (biotin protein ligase, Group II) (Bacillus subtilis 168)

>  <Measurement name>
binding

>  <Result>
no binding

$$$$

Any idea what its binding is? The sequence is ATTCAAAGGTTAACAATTAGAATATATTATTCTCTCCTGTTTCTGTCAATAGAAGAAAGGATCGATTTATGGCAGTTGGTTAAAAGGAAACAAAAAGACCGTTTTCACACAAAACGGTCTTTTTC (double strand) [B. subtilis bioO half site]
no binding
